System: 926638-142-R-J1-PDC complex spheroid viability
Test: Anticancer human tumor 926638-142-R-J1-PDC patient-derived endometrial carcinoma cell line growth inhibition [POLQ]
Details: second compound 0.316 µM; first compound 1 µM; stronger effect = lower value
// NB: equality with 60% counts as criterion not met; only viability, T/C strictly below is criterion met

[[record]]
molecule = "CCc1cc2c(N3CCc4c(cc(Cn5ccnc5)cc4-c4cn(C)nc4C(F)(F)F)C3=O)cc(C)nc2c(OC)n1 + COC1C(OC(N)=O)C(O)C(Oc2ccc3c(O)c(NC(=O)c4ccc(O)c(CC=C(C)C)c4)c(=O)oc3c2C)OC1(C)C"
assigned_label = "criterion met"

[[record]]
molecule = "CCc1cc2c(N3CCc4c(cc(Cn5ccnc5)cc4-c4cn(C)nc4C(F)(F)F)C3=O)ccnc2c(OC)n1 + Cc1cccc(N(C)C(=O)C2C(O)CCN2c2nc(C)cc(C(F)(F)F)c2C#N)c1"
assigned_label = "criterion met"

[[record]]
molecule = "COc1cccc(OCCCN)c1-c1cc(Nc2cnc(C#N)cn2)n[nH]1 + Cc1cccc(N(C)C(=O)C2C(O)CCN2c2nc(C)cc(C(F)(F)F)c2C#N)c1"
assigned_label = "criterion met"

[[record]]
molecule = "C=CC(=O)N1CCN(c2nc(=O)n(-c3c(C)ccnc3C(C)C)c3nc(-c4c(O)cccc4F)c(F)cc23)C(C)C1 (stereo not given) + COC1C(OC(N)=O)C(O)C(Oc2ccc3c(O)c(NC(=O)c4ccc(O)c(CC=C(C)C)c4)c(=O)oc3c2C)OC1(C)C"
assigned_label = "criterion not met"

[[record]]
molecule = "CC1COCCN1c1cc(C2(S(C)(=N)=O)CC2)nc(-c2ccnc3[nH]ccc23)n1 (stereo not given) + COC1C(OC(N)=O)C(O)C(Oc2ccc3c(O)c(NC(=O)c4ccc(O)c(CC=C(C)C)c4)c(=O)oc3c2C)OC1(C)C"
assigned_label = "criterion not met"

[[record]]
molecule = "CCc1c2c(nc3ccc(O)cc13)-c1cc3c(c(=O)n1C2)COC(=O)[C@]3(O)CC + Cc1cccc(N(C)C(=O)C2C(O)CCN2c2nc(C)cc(C(F)(F)F)c2C#N)c1"
assigned_label = "criterion met"

[[record]]
molecule = "CC(C)n1c(=O)n(C)c2cnc3cc(F)c(-c4ccc(OCCCN5CCCCC5)nc4)cc3c21 + COC1C(OC(N)=O)C(O)C(Oc2ccc3c(O)c(NC(=O)c4ccc(O)c(CC=C(C)C)c4)c(=O)oc3c2C)OC1(C)C"
assigned_label = "criterion not met"

[[record]]
molecule = "CC(C)n1c(=O)n(C)c2cnc3cc(F)c(-c4ccc(OCCCN5CCCCC5)nc4)cc3c21 + Cc1cccc(N(C)C(=O)C2C(O)CCN2c2nc(C)cc(C(F)(F)F)c2C#N)c1"
assigned_label = "criterion not met"

[[record]]
molecule = "C=CC(=O)N1CCN(c2nc(=O)n(-c3c(C)ccnc3C(C)C)c3nc(-c4c(O)cccc4F)c(F)cc23)C(C)C1 (stereo not given) + Nc1ccc(C#CCN(C(=O)Cc2ncc(C(F)(F)F)cc2C(F)(F)F)c2ccc(F)cc2)nn1"
assigned_label = "criterion not met"

[[record]]
molecule = "O=C(Nc1ccc(O)c(NS(=O)(=O)c2ccc(F)cc2)c1)c1ccc(-c2ccccc2)cc1 + Cc1cccc(N(C)C(=O)C2C(O)CCN2c2nc(C)cc(C(F)(F)F)c2C#N)c1"
assigned_label = "criterion not met"


----------
Tested on: 926638-142-R-J1-PDC complex spheroid viability
Experiment: Anticancer human tumor 926638-142-R-J1-PDC cell line growth inhibition [POLQ];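 further: spheroids exposed to drugs for one week before readout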
Conditions: curve of first compound; second compound 1 µM
measured metric: IC50

[[record]]
molecule = "CCc1c2c(nc3ccc(O)cc13)-c1cc3c(c(=O)n1C2)COC(=O)[C@]3(O)CC + COC1C(OC(N)=O)C(O)C(Oc2ccc3c(O)c(NC(=O)c4ccc(O)c(CC=C(C)C)c4)c(=O)oc3c2C)OC1(C)C"
test_result = "0.0107 µM"

[[record]]
molecule = "C#Cc1c(F)ccc2cc(O)cc(-c3ncc4c(N5CC6CCC(C5)N6)nc(OCC56CCCN5CC(F)C6)nc4c3F)c12 (stereo not drawn) + Nc1ccc(C#CCN(C(=O)Cc2ncc(C(F)(F)F)cc2C(F)(F)F)c2ccc(F)cc2)nn1"
test_result = "> 10 µM"

[[record]]
molecule = "O=C(Nc1ccc(O)c(NS(=O)(=O)c2ccc(F)cc2)c1)c1ccc(-c2ccccc2)cc1 + COC1C(OC(N)=O)C(O)C(Oc2ccc3c(O)c(NC(=O)c4ccc(O)c(CC=C(C)C)c4)c(=O)oc3c2C)OC1(C)C"
test_result = "> 10 µM"


----------
Tested on: 926638-142-R-J1-PDC complex spheroid viability
Test: Anticancer human tumor 926638-142-R-J1-PDC cell line growth inhibition [POLQ];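 further: spheroids exposed to drugs for one week before readout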
Settings: curve of first compound; second compound 10 µM
measured metric: IC50

[[record]]
molecule = "COc1cccc(OCCCN)c1-c1cc(Nc2cnc(C#N)cn2)n[nH]1 + Nc1ccc(C#CCN(C(=O)Cc2ncc(C(F)(F)F)cc2C(F)(F)F)c2ccc(F)cc2)nn1"
test_result = "0.0654 µM"

[[record]]
molecule = "CCc1c2c(nc3ccc(O)cc13)-c1cc3c(c(=O)n1C2)COC(=O)[C@]3(O)CC + COC1C(OC(N)=O)C(O)C(Oc2ccc3c(O)c(NC(=O)c4ccc(O)c(CC=C(C)C)c4)c(=O)oc3c2C)OC1(C)C"
test_result = "0.0136 µM"

[[record]]
molecule = "CNCc1ccc(-c2[nH]c3cc(F)cc4c3c2CCNC4=O)cc1 + Nc1ccc(C#CCN(C(=O)Cc2ncc(C(F)(F)F)cc2C(F)(F)F)c2ccc(F)cc2)nn1"
test_result = "> 10 µM"

[[record]]
molecule = "O=c1[nH]cc(F)c(=O)[nH]1 + COC1C(OC(N)=O)C(O)C(Oc2ccc3c(O)c(NC(=O)c4ccc(O)c(CC=C(C)C)c4)c(=O)oc3c2C)OC1(C)C"
test_result = "> 10 µM"

[[record]]
molecule = "COc1ccc([C@@H](O)c2cc(-c3ncnc4cc(N5CCOCC5)ccc34)c(F)cc2Cl)nn1 + Cc1cccc(N(C)C(=O)C2C(O)CCN2c2nc(C)cc(C(F)(F)F)c2C#N)c1"
test_result = "0.415 µM"


----------
Test system: 926638-142-R-J1-PDC complex spheroid viability
Assay: Anticancer human tumor 926638-142-R-J1-PDC cell line growth inhibition [POLQ];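 further: spheroids exposed to drugs for one week before readout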;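 on viability, T/C: percent viability relative to DMSO vehicle control wells set as 100%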
Conditions: second compound 0.0316 µM; first compound 0.316 µM; stronger effect = lower value
viability, T/C values for the compounds below.
measured metric: viability, T/C (%)

[[record]]
compound = "CCCS(=O)(=O)Nc1ccc(F)c(C(=O)c2c[nH]c3ncc(-c4ccc(Cl)cc4)cc23)c1F + COC1C(OC(N)=O)C(O)C(Oc2ccc3c(O)c(NC(=O)c4ccc(O)c(CC=C(C)C)c4)c(=O)oc3c2C)OC1(C)C"
test_result = 93.1

[[record]]
compound = "COc1cccc(OCCCN)c1-c1cc(Nc2cnc(C#N)cn2)n[nH]1 + Nc1ccc(C#CCN(C(=O)Cc2ncc(C(F)(F)F)cc2C(F)(F)F)c2ccc(F)cc2)nn1"
test_result = 49.3

[[record]]
compound = "C=CC(=O)N1CCN(c2nc(=O)n(-c3c(C)ccnc3C(C)C)c3nc(-c4c(O)cccc4F)c(F)cc23)C(C)C1 (stereo not drawn) + Cc1cccc(N(C)C(=O)C2C(O)CCN2c2nc(C)cc(C(F)(F)F)c2C#N)c1"
test_result = 67.2


----------
viability, T/C values for the compounds below.
Tested on: 926638-142-R-J1-PDC complex spheroid viability
Assay: Anticancer human tumor 926638-142-R-J1-PDC cell line growth inhibition [POLQ];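 further: spheroids exposed to drugs for one week before readout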;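 on viability, T/C: percent viability relative to DMSO vehicle control wells set as 100%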
Settings: second compound 1 µM; first compound 0.1 µM; stronger effect = lower value
measured metric: viability, T/C (%)

[[record]]
compound = "CC1COCCN1c1cc(C2(O)CC3CCC(C2)O3)c2cnn(-c3ccn[nH]3)c2n1 (stereo not given) + COC1C(OC(N)=O)C(O)C(Oc2ccc3c(O)c(NC(=O)c4ccc(O)c(CC=C(C)C)c4)c(=O)oc3c2C)OC1(C)C"
measured_target = "926638-142-R-J1-PDC complex spheroid viability"
measured_metric = "viability, T/C"
result_units = "%"
test_result = 75.8

[[record]]
compound = "COc1cc(C2c3cc4c(cc3C(OC3OC5COC(C)OC5C(O)C3O)C3COC(=O)C23)OCO4)cc(OC)c1O (stereo not given) + Nc1ccc(C#CCN(C(=O)Cc2ncc(C(F)(F)F)cc2C(F)(F)F)c2ccc(F)cc2)nn1"
measured_target = "926638-142-R-J1-PDC complex spheroid viability"
measured_metric = "viability, T/C"
result_units = "%"
test_result = 83.1

[[record]]
compound = "CC[C@@]1(O)C(=O)OCc2c1cc1n(c2=O)Cc2cc3c(CN(C)C)c(O)ccc3nc2-1 + Cc1cccc(N(C)C(=O)C2C(O)CCN2c2nc(C)cc(C(F)(F)F)c2C#N)c1"
measured_target = "926638-142-R-J1-PDC complex spheroid viability"
measured_metric = "viability, T/C"
result_units = "%"
test_result = 50.4

[[record]]
compound = "CC[C@@]1(O)C(=O)OCc2c1cc1n(c2=O)Cc2cc3c(CN(C)C)c(O)ccc3nc2-1 + Nc1ccc(C#CCN(C(=O)Cc2ncc(C(F)(F)F)cc2C(F)(F)F)c2ccc(F)cc2)nn1"
measured_target = "926638-142-R-J1-PDC complex spheroid viability"
measured_metric = "viability, T/C"
result_units = "%"
test_result = 49.4

[[record]]
compound = "C=CCn1c(=O)c2cnc(Nc3ccc(N4CCN(C)CC4)cc3)nc2n1-c1cccc(C(C)(C)O)n1 + Cc1cccc(N(C)C(=O)C2C(O)CCN2c2nc(C)cc(C(F)(F)F)c2C#N)c1"
measured_target = "926638-142-R-J1-PDC complex spheroid viability"
measured_metric = "viability, T/C"
result_units = "%"
test_result = 81.1

